- protocol details: qHTS Assay for Modulators of miRNAs and/or Inhibitors of miR-21; also: potency is read from the fitted curve at half-maximal effect; nearly all actives have a fitted effect of over 55% in size
- reported conditions: HeLa miR-21-FLuc reporter, luciferase luminescence, 48 h; actives lower the signal
In all, about 340,000 compounds went through this assay and about 3,300 (0.97%) were called active. Roughly 9% stayed inconclusive and do not appear here. Some of the results follow.
measured property: Potency

Some compounds with known Potency results, for comparison:
Briefly, Potency measured for `Clc1ccc(-c2nc3ccncc3[nH]2)cc1` : 7.36 µM (active)

Briefly, Potency measured for `O=C1CN(c2nc(-c3cccs3)nc3sc4c(c23)CCCC4)CCN1` : 10.4 µM (active)

response.value for `O=c1c2c3c(sc2nc(NCCO)n1Cc1ccco1)CCCCC3` (field: Potency) = 16.5 µM (active)

Further cases:
# Potency of Clc1ccc2c(c1)C1OCCC1C(c1ccco1)N2 (stereo unspecified) = 6.56 µM (active)

Looking up `C=CCNC(=O)c1cc(-c2ccccc2O)on1` , I see its Potency listed as 16.5 µM (active)

----------
- protocol details: qHTS Assay for Modulators of miRNAs and/or Inhibitors of miR-21; also: potency is read from the fitted curve at half-maximal effect; nearly all actives have a fitted effect of over 55% in size
- reported conditions: HeLa miR-21-FLuc reporter, luciferase luminescence, 48 h; actives lower the signal
The whole screen tested about 340,000 compounds, of which about 3,300 (0.97%) were called active. Not shown: some 9% with an inconclusive outcome. The list shows a part of the results.
# Potency values compiled below

For reference, reported Potency for `CCOC(=O)c1cc2c(=O)c3cc(C)ccc3oc2nc1C` stands at 1040 nM (active)

---
# compound `COc1ccc(C(=O)Nc2nnc(SCC(=O)Nc3ccc(NC(C)=O)cc3)s2)c(OC)c1` ; its Potency = 65.6 nM (active)

// Potency lookup, compound = `COc1ccc(-c2nc(C#N)c(NCc3ccc(C)cc3)o2)cc1OC` , result: 7360 nM (active)

The compound identified as `O=[N+]([O-])c1ccccc1COc1ccc(Cl)c2cccnc12` registered its Potency at 293 nM (active)

Per the records, this compound ( `CCn1c(SCC(=O)O)nnc1-c1ccccc1OC` ) has Potency equal to 3290 nM (active)

----------
We begin with a simple list: items and their reported Potency.
- protocol details: qHTS Assay for Modulators of miRNAs and/or Inhibitors of miR-21; also: potency is read from the fitted curve at half-maximal effect; nearly all actives have a fitted effect of over 55% in size
- reported conditions: HeLa miR-21-FLuc reporter, luciferase luminescence, 48 h; actives lower the signal
About 3,300 (0.97%) of roughly 340,000 compounds were called active. Roughly 9% stayed inconclusive and do not appear here. Some of the results follow.

Below are worked cases with known answers.
For `COc1ccc(-c2cc(=O)c3ccccc3o2)cc1` the molecule record lists Potency as 5.85 µM (active)

`Brc1c(CSc2nnc(-c3ccco3)o2)nc2ccccn12` has a reported Potency of 11.7 µM (active)

---
Please fill in: Potency reported for `O=C(NC1CCCCC1)c1ccc(-c2cccc([N+](=O)[O-])c2)o1` = 1.31 µM (active)

For `CN1CCN(C(=O)c2cccc(COc3cc(Cl)ccc3Cl)c2)CC1` the molecule record lists Potency as 16.5 µM (active)

So, `Cc1ccccc1-c1nnc(SCc2ccccc2)o1` ? Its Potency was 5.21 µM (active)

// Potency value for `Nc1c(C(=O)N/N=C/c2cccnc2)cnn1-c1ccccc1` : 16.5 µM (active)

Measured Potency, `C/C(=N\NC(=O)c1csc(C)c1C)c1ccc(C)s1` : 13.1 µM (active)

Entry under test: `CCCCC(=O)Nc1sc2c(c1C(N)=O)CCC2` . Its Potency was 11.7 µM (active)

Entry under test: `Cc1ccc(C)c(N2CCN(c3cnn(-c4nc5ccccc5s4)c(=O)c3Cl)CC2)c1` . Its Potency was 0.927 µM (active)

`Cc1ccc(OCc2cn3cccnc3n2)cc1` yielded Potency of 2.07 µM (active)

So for `C/C(=N/NC(=O)c1ccc(C)s1)c1ccncc1` , the logged Potency turned out to be 16.5 µM (active)

Reported Potency ( `COc1ccc(-c2csc(N3C(=O)CNC3=S)n2)cc1` ) = 0.0585 µM (active)

Potency reading for `COc1ccc2oc(=O)c(-c3nc4ccccc4o3)cc2c1` : 9.27 µM (active)

// recorded Potency for `COc1ccc(OCC(=O)N/N=C(\C)c2cc3ccccc3o2)cc1` : 18.5 µM (active)

Record `COc1ccc2c(c1)Cc1sc(NC(C)=O)nc1-2` . Reported Potency: 0.631 µM (active)

Please fill in: Potency reported for `O=C(Nc1ccc(Cl)cc1Cl)c1ccc2ncsc2c1` = 2.33 µM (active)

Reported Potency ( `Cc1ccccc1-c1nnc(CN2CCC(C)CC2)o1` ) = 14.7 µM (active)

CCC(C)NC(=O)Cn1c(COc2ccc(Cl)cc2Cl)nc2ccccc21 (stereo unspecified) yielded Potency of 8.26 µM (active)

The reported value for `O=c1cc(-c2ccccc2Cl)oc2cc(O)cc(O)c12` in terms of Potency is 10.4 µM (active)

Record `Cc1ccc(NC(=O)CSc2nnc(-c3cccs3)o2)cc1S(=O)(=O)N(C)C` , field Potency: 8.26 µM (active)

Looking up `Cc1scc(C(=O)N/N=C/c2ccc(Cl)s2)c1C` , I see its Potency listed as 1.65 µM (active)

Given item `COc1ccc(-c2nc(C#N)c(NCc3ccco3)o2)cc1` , the value recorded as its Potency is 9.27 µM (active)
